system: Staphylococcus aureus; test: microbe, parasite or virus in culture; assay type: functional; details: ATCC 43300
Description: Antibacterial activity against Staphylococcus aureus ATCC 43300 using DMSO as solvent by broth microdilution method
Where a name gives a salt, the structure may show the parent alone.

| compound | target of assay | MIC80 |
| --- | --- | --- |
| O=C(O)c1cn(C2CC2)c2cc(N3CCNCC3)c(F)cc2c1=O [CIPROFLOXACIN HYDROCHLORIDE] | Staphylococcus aureus | 1.6 µM |
| CN(C)[C@@H]1C(O)=C(C(N)=O)C(=O)[C@@]2(O)C(O)=C3C(=O)c4c(O)cccc4[C@@](C)(O)[C@H]3C[C@@H]12 [TETRACYCLINE] | Staphylococcus aureus | 0.78 µM |
| CC1(C)S[C@@H]2[C@H](NC(=O)Cc3ccccc3)C(=O)N2[C@H]1C(=O)O [PENICILLIN G SODIUM] | Staphylococcus aureus | 34 µM |
| CN[C@H](CC(C)C)C(=O)N[C@H]1C(=O)N[C@@H](CC(N)=O)C(=O)N[C@H]2C(=O)N[C@H]3C(=O)N[C@H](C(=O)N[C@H](C(=O)O)c4cc(O)cc(O)c4-c4cc3ccc4O)[C@H](O)c3ccc(c(Cl)c3)Oc3cc2cc(c3O[C@@H]2O[C@H](CO)[C@@H](O)[C@H](O)[C@H]2O[C@H]2C[C@](C)(N)[C@H](O)[C@H](C)O2)Oc2ccc(cc2Cl)[C@H]1O [VANCOMYCIN HYDROCHLORIDE] | Staphylococcus aureus | 0.39 µM |
| C[C@H]1COc2c(N3CCN(C)CC3)c(F)cc3c(=O)c(C(=O)O)cn1c23 [LEVOFLOXACIN] | Staphylococcus aureus | 0.78 µM |

====

system: Escherichia coli; assay: Antibacterial activity against Escherichia coli ATCC 25922 using cyrene as solvent by broth microdilution method; type: functional
Bridge positions count the residues as written; N and C are the ends. Square brackets hold non-standard residues; d marks the D form. Peptide text beside a SMILES is read from it. * marks the point of attachment. X1 = CC[C@H](C)CCCCC(=O)*; Dab = NCC[C@H](N)C(=O)O
readout kind: MIC80 (µM)

| compound | readout kind | recorded number |
| --- | --- | --- |
| C[C@H]1COc2c(N3CCN(C)CC3)c(F)cc3c(=O)c(C(=O)O)cn1c23 | MIC80 | 0.019 |
| CN(C)[C@@H]1C(O)=C(C(N)=O)C(=O)[C@@]2(O)C(O)=C3C(=O)c4c(O)cccc4[C@@](C)(O)[C@H]3C[C@@H]12 | MIC80 | 3.13 |
| NC[C@H]1O[C@H](O[C@H]2[C@H](O)[C@@H](O[C@H]3O[C@H](CO)[C@@H](O)[C@H](N)[C@H]3O)[C@H](N)C[C@@H]2N)[C@H](N)C[C@@H]1O | MIC80 | 0.78 |
| CC[C@H](C)CCCCC(=O)N[C@@H](CCN)C(=O)N[C@H](C(=O)N[C@@H](CCN)C(=O)N[C@H]1CCNC(=O)[C@H]([C@@H](C)O)NC(=O)[C@H](CCN)NC(=O)[C@H](CCN)NC(=O)[C@H](CC(C)C)NC(=O)[C@@H](Cc2ccccc2)NC(=O)[C@H](CCN)NC1=O)[C@@H](C)O (X1-[Dab]T[Dab][Dab][Dab][dF]L[Dab][Dab]T; lactam 4-C) | MIC80 | 1.6 |

====

Item-by-item account of MIC80
test system: Acinetobacter baumannii; assay: Antibacterial activity against Acinetobacter baumannii ATCC 19606 using cyrene as solvent by broth microdilution method; format: functional; details: ATCC 19606 = CIP 70.34 = JCM 6841

| compound | units | MIC80 |
| --- | --- | --- |
| C[C@H]1COc2c(N3CCN(C)CC3)c(F)cc3c(=O)c(C(=O)O)cn1c23 [LEVOFLOXACIN] | µM | 0.39 |
| NC[C@H]1O[C@H](O[C@H]2[C@H](O)[C@@H](O[C@H]3O[C@H](CO)[C@@H](O)[C@H](N)[C@H]3O)[C@H](N)C[C@@H]2N)[C@H](N)C[C@@H]1O [TOBRAMYCIN] | µM | 3.1 |
| CN(C)[C@@H]1C(O)=C(C(N)=O)C(=O)[C@@]2(O)C(O)=C3C(=O)c4c(O)cccc4[C@@](C)(O)[C@H]3C[C@@H]12 [TETRACYCLINE] | µM | 12.5 |

====

Item-by-item account of MIC80
system: Acinetobacter baumannii; test: Antibacterial activity against Acinetobacter baumannii ATCC 19606 using cyrene as solvent by broth microdilution method; format: functional; conditions: ATCC 19606 = CIP 70.34 = JCM 6841
Structures can show the parent of a compound that is named as a salt. Bridge positions count the residues as written; N and C are the ends. Square brackets hold non-standard residues; d marks the D form. Peptide text beside a SMILES is read from it. * marks the point of attachment. X1 = CC[C@H](C)CCCCC(=O)*; Dab = NCC[C@H](N)C(=O)O
readout kind: MIC80 (µM)

| compound | readout kind | recorded number |
| --- | --- | --- |
| CC[C@H](C)CCCCC(=O)N[C@@H](CCN)C(=O)N[C@H](C(=O)N[C@@H](CCN)C(=O)N[C@H]1CCNC(=O)[C@H]([C@@H](C)O)NC(=O)[C@H](CCN)NC(=O)[C@H](CCN)NC(=O)[C@H](CC(C)C)NC(=O)[C@@H](Cc2ccccc2)NC(=O)[C@H](CCN)NC1=O)[C@@H](C)O (X1-[Dab]T[Dab][Dab][Dab][dF]L[Dab][Dab]T; lactam 4-C) | MIC80 | 1.6 |
| O=C(O)c1cn(C2CC2)c2cc(N3CCNCC3)c(F)cc2c1=O [CIPROFLOXACIN HYDROCHLORIDE] | MIC80 | 1.6 |

====

system: Klebsiella pneumoniae; test: Antibacterial activity against Klebsiella pneumoniae ATCC 700603 using DMSO as solvent by broth microdilution method; assay type: functional
Structures can show the parent of a compound that is named as a salt. Bridge positions count the residues as written; N and C are the ends. Square brackets hold non-standard residues; d marks the D form. Peptide text beside a SMILES is read from it. * marks the point of attachment. X1 = CC[C@H](C)CCCCC(=O)*; Dab = NCC[C@H](N)C(=O)O
readout kind: MIC80 (µM)

| compound | readout kind | recorded number |
| --- | --- | --- |
| CC[C@H](C)CCCCC(=O)N[C@@H](CCN)C(=O)N[C@H](C(=O)N[C@@H](CCN)C(=O)N[C@H]1CCNC(=O)[C@H]([C@@H](C)O)NC(=O)[C@H](CCN)NC(=O)[C@H](CCN)NC(=O)[C@H](CC(C)C)NC(=O)[C@@H](Cc2ccccc2)NC(=O)[C@H](CCN)NC1=O)[C@@H](C)O (X1-[Dab]T[Dab][Dab][Dab][dF]L[Dab][Dab]T; lactam 4-C) | MIC80 | 1.6 |
| C[C@H]1COc2c(N3CCN(C)CC3)c(F)cc3c(=O)c(C(=O)O)cn1c23 | MIC80 | 0.78 |
| NC[C@H]1O[C@H](O[C@H]2[C@H](O)[C@@H](O[C@H]3O[C@H](CO)[C@@H](O)[C@H](N)[C@H]3O)[C@H](N)C[C@@H]2N)[C@H](N)C[C@@H]1O | MIC80 | 13 |
| O=C(O)c1cn(C2CC2)c2cc(N3CCNCC3)c(F)cc2c1=O [CIPROFLOXACIN HYDROCHLORIDE] | MIC80 | 0.39 |

The origin of these recorded values is ChEMBL document CHEMBL4673173.
